What follows is a record of pKi for 5-HT1A serotonin receptor (Rattus norvegicus).
// returns pKi (minus log10 of molar concentration), number only

Known results for molecules:
>>> print(df.to_string())
                                   molecule  resultvalue
0  O=C1C2CC(C(=O)N1CCCCN1CCN(c3ncccn3)CC1)C1CC=CC21 (stereo not shown) [Example 4]         8.46
1  O=C1C2CC(C(=O)N1CCCCN1CCN(c3ncccn3)CC1)C1CCCC21 (stereo not shown) [Example 1]         8.52
2  O=C1C2CC(C(=O)N1CCCCN1CCN(c3ncccn3)CC1)C1C2C2C3CC4C2C4C31 (stereo not shown) [Example 6]         9.64

Now for a further molecule.
Which pKi is reported for this molecule? O=C1C2CC(C(=O)N1CCCCN1CCN(c3cncc(Cl)n3)CC1)C1CC=CC21 (stereo not shown) [Example 5]
7.22

====

assayTarget: D-2 dopamine receptor (Rattus norvegicus, UniProt P61169)
Construct: from tissue; host or cells: limbic brain tissue
Sequence (P61169 whole entry): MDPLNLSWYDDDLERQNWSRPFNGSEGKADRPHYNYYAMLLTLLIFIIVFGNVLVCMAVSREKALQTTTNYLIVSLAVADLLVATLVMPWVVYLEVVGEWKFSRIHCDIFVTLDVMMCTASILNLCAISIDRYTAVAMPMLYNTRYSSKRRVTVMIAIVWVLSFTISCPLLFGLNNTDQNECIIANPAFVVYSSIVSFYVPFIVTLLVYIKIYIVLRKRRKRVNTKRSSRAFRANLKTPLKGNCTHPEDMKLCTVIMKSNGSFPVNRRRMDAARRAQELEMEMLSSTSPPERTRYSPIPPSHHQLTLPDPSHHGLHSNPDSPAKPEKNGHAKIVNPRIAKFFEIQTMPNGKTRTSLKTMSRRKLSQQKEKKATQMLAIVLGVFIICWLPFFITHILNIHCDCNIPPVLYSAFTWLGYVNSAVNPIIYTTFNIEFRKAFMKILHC
assayExplanation: [3H]Spiroperidol binding inhibition, homogenized limbic brain tissue
conditions: 1 μM
The label depends only on inhibition at 1 µM: label 1 if it is at least 20%, label 0 if it is smaller.

Past entries and their recorded results:
>>> print(df.to_string())
                                   compound  grouplabel
0  O=C1C2CC(C(=O)N1CCCCN1CCN(c3cncc(Cl)n3)CC1)c1ccccc12     label 0
1  O=C1C2CC(C(=O)N1CCCCN1CCN(c3cncc(Cl)n3)CC1)C1CC=CC21 (stereo not shown)     label 1
2  O=C1C2CC(C(=O)N1CCCCN1CCN(c3cncc(Cl)n3)CC1)C1C2C2C3CC4C2C4C31 (stereo not shown)     label 1
3  O=C1C2CC(C(=O)N1CCCCN1CCN(c3cccc(C(F)(F)F)c3)CC1)C1CCCC21 (stereo not shown)     label 1
4  O=C1C2CC(C(=O)N1CCCCN1CCN(c3cnccn3)CC1)C1C2C2C3CC4C2C4C31 (stereo not shown)     label 1

Evaluate O=C1C2CC(C(=O)N1CCCCN1CCN(c3ncccn3)CC1)C1CC=CC21 (stereo not shown) : inhibition at 1 µM at minimum 20%?
label 1
